pIC50: −log10 of the molar value.
Record type: pIC50 measurement. Applies to: protein kinases (panel of Table 4) (Homo sapiens, UniProt P36888)
value_kind: pIC50

compound="CCNc1nc(C)c(-c2ccnc(Nc3ccc(N4CCNCC4)cc3)n2)s1 [Compound 59]" value_kind=pIC50 experimental_value=7.77
compound="CNc1nc(C)c(-c2ccnc(Nc3ccc(C)c(S(=O)(=O)N4CCOCC4)c3)n2)s1 [Compound 37]" value_kind=pIC50 experimental_value=6.77

a. COCCNS(=O)(=O)c1cccc(Nc2nccc(-c3sc(N)nc3C)n2)c1 [Compound 55]
b. CNc1nc(C)c(-c2ccnc(Nc3cccc(S(C)(=O)=O)c3)n2)s1 [Compound 27]
Record comparison, field pIC50: mark the lower of a and b . Choose, then provide that item's label.
a

Cited source for all entries: patent US20090137572A1
